These data points were gathered from patent US6020327A.

Molecular target: aromatase (Homo sapiens, UniProt P11511)
Sequence (P11511 1-503): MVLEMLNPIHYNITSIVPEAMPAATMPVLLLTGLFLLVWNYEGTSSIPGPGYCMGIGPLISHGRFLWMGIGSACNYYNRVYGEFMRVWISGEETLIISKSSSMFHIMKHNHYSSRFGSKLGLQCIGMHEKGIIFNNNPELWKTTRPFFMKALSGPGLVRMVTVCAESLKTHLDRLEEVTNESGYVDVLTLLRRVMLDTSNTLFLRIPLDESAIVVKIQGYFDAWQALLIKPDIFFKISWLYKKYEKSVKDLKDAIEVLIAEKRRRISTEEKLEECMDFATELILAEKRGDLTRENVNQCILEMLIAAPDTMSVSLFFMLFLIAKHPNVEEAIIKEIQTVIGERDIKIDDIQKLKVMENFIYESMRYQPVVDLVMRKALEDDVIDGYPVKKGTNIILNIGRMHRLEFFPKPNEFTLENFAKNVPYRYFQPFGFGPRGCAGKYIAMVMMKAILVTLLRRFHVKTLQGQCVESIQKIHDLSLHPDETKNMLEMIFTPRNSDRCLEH
pIC50: −log10 of the molar value.
assay_endpoint: pIC50

Input line: Request the reported pIC50 associated with C[C@]12CCC(=O)C(O)=C1CC[C@@H]1[C@@H]2CC[C@]2(C)C(=O)CC[C@@H]12 [4-OH androstenedione]
Output line: ~7.60
